assay: AUC (0 to 8 hrs) in healthy male human at 200 mg; format: ADME, organism-based; parameters: dose 200 mg, time < 8 hr; settings: plasma
parameter: AUC(0-t) at 8 h (ng·h/mL)
Please respond with the number in ng·h/mL and leave the unit unwritten.

Measured AUC(0-t) at 8 h, "CONC(=O)Nc1ccc(-c2sc3c(c2CN(C)Cc2ccccc2)c(=O)n(-c2ccccc2)c(=O)n3Cc2c(F)cccc2F)cc1" : 2560

----------
biological target: Gonadotropin-releasing hormone receptor (Rattus norvegicus, UniProt P30969); assay: Binding affinity at rat GnRH receptor
Sequence (P30969 whole entry): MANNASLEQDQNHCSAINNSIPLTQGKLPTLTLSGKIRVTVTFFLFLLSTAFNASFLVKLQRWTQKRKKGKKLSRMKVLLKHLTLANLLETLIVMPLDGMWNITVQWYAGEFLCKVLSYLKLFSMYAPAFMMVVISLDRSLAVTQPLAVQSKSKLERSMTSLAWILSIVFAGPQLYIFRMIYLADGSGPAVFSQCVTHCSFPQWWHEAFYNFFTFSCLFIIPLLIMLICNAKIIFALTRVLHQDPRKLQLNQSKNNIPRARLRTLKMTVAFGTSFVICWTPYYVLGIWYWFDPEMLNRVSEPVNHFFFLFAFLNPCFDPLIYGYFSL
parameter: pIC50
pIC50 is defined as minus the log10 of a concentration measured in mol/L.

Short answer for "Cc1cc(C)cc(-c2[nH]c3c(c2[C@H](C)CNCCc2ccc(-c4nnn[nH]4)cc2)CN(C(=O)Cc2c(F)cccc2C(F)(F)F)CC3)c1" : pIC50 was 9.70

----------
experiment: Half life in postmenopausal women at 5 to 200 mg, po; type: ADME, organism-based; settings: female, human, in vivo
parameter: half-life (h)
Supply the numeric figure in h, leaving out any unit text.

Sure, the documented half-life for "COc1cccc(-c2c(C)n(Cc3c(F)cccc3F)c(=O)n(C[C@H](N)c3ccccc3)c2=O)c1F" is 2.7

----------
assay: Cmax in healthy male human at 10 mg; assay type: ADME, organism-based; parameters: dose 10 mg; conditions: in vivo
parameter: Cmax (ng/mL)
Number only, in ng/mL; omit the unit.

The value of Cmax measured for the molecule "CONC(=O)Nc1ccc(-c2sc3c(c2CN(C)Cc2ccccc2)c(=O)n(-c2ccccc2)c(=O)n3Cc2c(F)cccc2F)cc1" turned out to be 15

----------
Biological target: Gonadotropin-releasing hormone receptor (Homo sapiens)
Sequence (P30968 whole entry): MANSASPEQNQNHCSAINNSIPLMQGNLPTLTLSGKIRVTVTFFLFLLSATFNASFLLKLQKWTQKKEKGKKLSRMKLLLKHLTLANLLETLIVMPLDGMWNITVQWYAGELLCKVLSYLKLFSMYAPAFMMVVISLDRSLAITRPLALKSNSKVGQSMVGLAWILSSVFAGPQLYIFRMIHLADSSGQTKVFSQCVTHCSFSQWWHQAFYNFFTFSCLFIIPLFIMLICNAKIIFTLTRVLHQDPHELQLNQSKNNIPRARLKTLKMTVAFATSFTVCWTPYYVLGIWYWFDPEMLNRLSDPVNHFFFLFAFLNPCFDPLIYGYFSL
Assay: Binding affinity at human GnRH receptor by calcium mobilization assay
Assay type: functional
Measured IC50 values are reported for all entries that follow.
Express it in µM; write the number only.

CCSc1nc2cc(NC(=O)C3CC3)ccc2n1C(C)C : 10
CCCn1c(SCc2cc([N+](=O)[O-])ccc2OC)nc2cc(NC(=O)NC(C)(C)C)cc(C(=O)NC)c21 : 41

API: the following record is the query input.
Entry "CCSc1nc2cc(S(=O)(=O)NCc3ccccc3OC)ccc2n1Cc1ccccc1" ; assay system Gonadotropin-releasing hormone receptor (Homo sapiens); IC50 recorded at 3.4

----------
Biological target: Gonadotropin-releasing hormone receptor (Macaca mulatta)
Sequence (Q8SPZ1 whole entry): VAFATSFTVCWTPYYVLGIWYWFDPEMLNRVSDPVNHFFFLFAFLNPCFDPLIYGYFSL
Assay: Activity at rhesus monkey GnRH receptor by inositol phosphate functional assay
parameter: pIC50
Note: pIC50 values are expressed as the negative base-10 logarithm of concentration in M.

Form: compound = "Cc1cc(-c2c(OCC[C@@H]3CCN3)c3cc(C(=O)Nc4ccncn4)c(Cl)cc3[nH]c2=O)cc(C)c1C" ; pIC50 = 8.15

----------
target: UniProt P30968
parameter: Ki (nM)
Write it as a number; the unit nM goes unstated.

Sample answers from the record:
N[C@@H](Cn1c(=O)c(-c2ccccc2F)c2n(c1=O)C(c1ccccc1F)CO2)c1ccccc1 (stereo partly drawn) : 230
COc1cccc(-c2nn(Cc3c(F)cccc3C(F)(F)F)c(=O)n(C[C@H](N)c3ccccc3)c2=O)c1F : 13

Now look at this one.
Observed Ki, UniProt P30968, COc1cccc(-c2c3n(c(=O)n(C[C@H](N)c4ccccc4)c2=O)C(c2ccccc2F)CS3)c1Cl (stereo partly drawn) : 4.5

----------
test: Oral bioavailability in monkey; format: ADME, organism-based, Macaca mulatta; conditions: rhesus monkey, in vivo
parameter: bioavailability (%)
Just the number please, in %, no unit attached.

Entry "CN[C@@H](Cc1ccccc1)Cn1c(=O)c(-c2cccc(OC)c2F)c(C)n(Cc2c(F)cccc2F)c1=O" ; bioavailability = 22

----------
molecular target: Gonadotropin-releasing hormone receptor (Rattus norvegicus, UniProt P30969); assay: Binding affinity at rat GnRH receptor by competition binding assay
parameter: IC50 (nM)
Use nM as the unit, but write only the number.

Notebook: "CCn1cc(CN2CCN(c3cccc4[nH]c(-c5ccc(C(C)(C)C)cc5)nc34)CC2)c(=O)[nH]c1=O" , IC50 read as 18

----------
experiment: Tmax in postmenopausal women at 5 to 200 mg, po; type: ADME, organism-based; settings: female, human, in vivo
parameter: Tmax (min)
Record the value in min, omitting the unit from your answer.

Tmax for "COc1cccc(-c2c(C)n(Cc3c(F)cccc3F)c(=O)n(C[C@H](N)c3ccccc3)c2=O)c1F" is 24

----------
Listing: pIC50 of selected compounds
target: Gonadotropin-releasing hormone receptor (Homo sapiens, UniProt P30968); test: Binding affinity at human GnRH receptor by competition binding assay
As a rule, pIC50 stands for the negative log10 of the concentration, concentration in M.

Below, each entry is followed by its recorded pIC50 result.
CC(C)(C)c1ccc(-c2nc3c(N4CCN(Cc5ccnc(S(C)(=O)=O)n5)CC4)cccc3[nH]2)cc1 : 8.28
CCn1cc(CN2CCN(c3cccc4[nH]c(-c5ccc(C(C)(C)C)cc5)nc34)CC2)c(=O)[nH]c1=O : 8.80
FC(F)(F)c1nc2c(N3CCN(CCOc4cccc5[nH]c(=S)[nH]c45)CC3)cccc2[nH]1 : 6.10

Lab book: pIC50 of "CCc1nc(C)c(CN2CCN(c3cccc4[nH]c(-c5ccc(C(C)(C)C)cc5)nc34)CC2)[nH]1" noted as 8.18
